Target: ATP-citrate synthase (Homo sapiens, UniProt P53396)
Sequence (P53396 whole entry): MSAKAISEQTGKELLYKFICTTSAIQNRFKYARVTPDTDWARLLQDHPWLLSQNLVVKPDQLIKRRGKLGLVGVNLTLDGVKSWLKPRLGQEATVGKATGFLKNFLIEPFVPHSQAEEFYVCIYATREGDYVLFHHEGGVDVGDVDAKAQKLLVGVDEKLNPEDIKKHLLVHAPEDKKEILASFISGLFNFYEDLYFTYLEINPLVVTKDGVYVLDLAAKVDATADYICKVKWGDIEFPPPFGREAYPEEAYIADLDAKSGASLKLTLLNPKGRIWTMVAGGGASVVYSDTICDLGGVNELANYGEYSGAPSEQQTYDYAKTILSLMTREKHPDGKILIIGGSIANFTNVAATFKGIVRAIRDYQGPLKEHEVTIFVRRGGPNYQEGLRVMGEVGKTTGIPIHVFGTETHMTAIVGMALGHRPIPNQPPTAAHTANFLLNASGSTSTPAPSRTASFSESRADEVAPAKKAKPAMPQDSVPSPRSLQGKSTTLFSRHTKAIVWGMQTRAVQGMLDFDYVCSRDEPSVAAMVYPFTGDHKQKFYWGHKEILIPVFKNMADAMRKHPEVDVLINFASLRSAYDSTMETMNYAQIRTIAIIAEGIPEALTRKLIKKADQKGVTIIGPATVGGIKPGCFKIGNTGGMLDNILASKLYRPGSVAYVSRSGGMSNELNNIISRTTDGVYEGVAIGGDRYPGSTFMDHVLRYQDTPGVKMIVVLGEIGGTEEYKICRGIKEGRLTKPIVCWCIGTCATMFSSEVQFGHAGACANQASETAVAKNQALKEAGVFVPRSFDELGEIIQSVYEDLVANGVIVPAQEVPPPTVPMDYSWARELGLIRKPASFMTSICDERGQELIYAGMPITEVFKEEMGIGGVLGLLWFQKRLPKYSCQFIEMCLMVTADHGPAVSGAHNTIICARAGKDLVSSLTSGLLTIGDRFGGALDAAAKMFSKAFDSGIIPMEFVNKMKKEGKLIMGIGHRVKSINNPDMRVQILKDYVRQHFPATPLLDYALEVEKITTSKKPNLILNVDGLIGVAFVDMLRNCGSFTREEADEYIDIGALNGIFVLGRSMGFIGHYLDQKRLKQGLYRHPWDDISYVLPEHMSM
Assay: Inhibition of human recombinant ATP-citrate lyase
Kindly supply the reported pIC50 values for the records listed here.
Numbers only, as −log10 of the molar value.

Worked set:
- O=S(=O)(Nc1cc(Cl)cc(Cl)c1)c1cc(Cl)cc(Cl)c1O: 5.64
- CC(C)(C)c1cc(NS(=O)(=O)c2cc(Cl)cc(Cl)c2O)cc(C(C)(C)C)c1: 5.96
- O=C(O)C[C@@](O)(C(=O)O)[C@H](O)C(=O)O: 6.82
- CC(=O)N(C)c1ccc(NS(=O)(=O)c2cc(Cl)cc(Cl)c2O)cc1: 4.96
- O=C(OC/C=C\c1ccccc1)c1ccccc1NS(=O)(=O)c1cc(Cl)cc(Cl)c1O: 6.47

Okay, here is my list. What is pIC50 for each of these?
1. CC1CCC(C(C)C)C(OC(=O)c2ccccc2NS(=O)(=O)c2cc(Cl)cc(Cl)c2O)C1 (stereo not drawn)
2. O=S(=O)(Nc1cccc(Oc2ccccc2)c1)c1cc(Cl)cc(Cl)c1O
3. O=S(=O)(Nc1c(-c2ccccc2)cc(-c2ccccc2)cc1-c1ccccc1)c1cc(Cl)cc(Cl)c1O
4. CC(C)(C)c1ccc(C(C)(C)C)c(NS(=O)(=O)c2cc(Cl)cc(Cl)c2O)c1
5. COc1ccc(-c2ccccc2)cc1NS(=O)(=O)c1cc(Cl)cc(Cl)c1O

6.43
5.09
6.72
5.25
6.89
